Assign Biodistribution Fat to each entry below.
# Test system: PSMA-expressing LNCAP cancer xenografts
# assay method text: Biodistribution and tumor-to-background contrast ratios of 18F-labeled tracers
# Format: in vivo, mouse (NODSCID 1L2RγKO male mice)
# test conditions: 1 h
# Method: LNCap cell line was obtained from ATCC (LNCaP clone FGC, CRL-1740). It was established from a metastatic site of left supraclavicular lymph node of human prostatic adenocarcinoma. […] The collected cells number was counted with a Hausser Scientific (Horsham, Pa.) Hemacytometer. […] PET imaging experiments were conducted using Siemens Inveon micro PET/CT scanner. […] Then, a 10-min static PET imaging was performed to determined uptake in tumor and other organs. […]

IN: Which Biodistribution Fat reading was recorded for the molecule C[N+](C)(Cc1cn(CC(=O)NCCOCCOCCC(=O)N[C@@H](Cc2ccc3ccccc3c2)C(=O)NCCCC[C@H](NC(=O)N[C@@H](CCC(=O)O)C(=O)O)C(=O)O)nn1)C[B-](F)(F)[18F] [^18F-HTK01146] ?
OUT: 0.27 ± 0.14 % ID/g

IN: Which Biodistribution Fat reading was recorded for the molecule C[N+](C)(Cc1cn(Cc2ccc(C(=O)NCCCC[C@H](NC(=O)N[C@@H](CCC(=O)O)C(=O)O)C(=O)O)cn2)nn1)C[B-](F)(F)[18F] [^18F-HTK01130] ?
OUT: 0.39 ± 0.14 % ID/g

IN: Which Biodistribution Fat reading was recorded for the molecule C[N+](C)(Cc1cn(CC(=O)NC[C@H]2CC[C@H](C(=O)N[C@@H](Cc3ccc4ccccc4c3)C(=O)NCCCC[C@H](NC(=O)N[C@@H](CCC(=O)O)C(=O)O)C(=O)O)CC2)nn1)C[B-](F)(F)[18F] [^18F-HTK01157] ?
OUT: 0.83 ± 0.33 % ID/g

IN: Which Biodistribution Fat reading was recorded for the molecule O=C(O)CC[C@H](NC(=O)N[C@@H](CCCCNC(=O)[C@H](Cc1ccc2ccccc2c1)NC(=O)[C@H]1CC[C@H](CNC(=O)Cn2cc(C[n+]3ccc([B-](F)(F)[18F])cc3)nn2)CC1)C(=O)O)C(=O)O [^18F-PSMA-617-PyrBF3] ?
OUT: 0.42 ± 0.30 % ID/g

IN: Which Biodistribution Fat reading was recorded for the molecule C[N+](C)(Cc1cn(Cc2ccc(C(=O)NCCCC[C@H](NC(=O)N[C@@H](CCC(=O)O)C(=O)O)C(=O)O)cc2)nn1)C[B-](F)(F)[18F] ?
OUT: 0.73 ± 0.26 % ID/g

IN: Which Biodistribution Fat reading was recorded for the molecule C[N+](C)(Cc1ccc(C(=O)NCCCC[C@H](NC(=O)N[C@@H](CCC(=O)O)C(=O)O)C(=O)O)cc1)C[B-](F)(F)[18F] ?
OUT: 0.99 ± 0.39 % ID/g

IN: Which Biodistribution Fat reading was recorded for the molecule O=C(O)CC[C@H](NC(=O)N[C@@H](CCCCNC(=O)c1ccc(Cn2cc(C[n+]3ccc([B-](F)(F)[18F])cc3)nn2)nc1)C(=O)O)C(=O)O [^18F-PSMA PyrBF3] ?
OUT: 1.05 ± 0.49 % ID/g

----------
Assign Biodistribution Tumor to each entry below.
# Test system: PSMA-expressing LNCAP cancer xenografts
# assay method text: Biodistribution and tumor-to-background contrast ratios of 18F-labeled tracers
# Format: in vivo, mouse (NODSCID 1L2RγKO male mice)
# test conditions: 1 h
Answer format: numeric, % ID/g implied, no suffix.

IN: Which Biodistribution Tumor reading was recorded for the molecule C[N+](C)(Cc1cn(Cc2ccc(C(=O)NCCCC[C@H](NC(=O)N[C@@H](CCC(=O)O)C(=O)O)C(=O)O)cc2)nn1)C[B-](F)(F)[18F] [F-18 HTK-01070] ?
OUT: 8.28

IN: Which Biodistribution Tumor reading was recorded for the molecule C[N+](C)(Cc1cn(Cc2ccc(C(=O)NCCCC[C@H](NC(=O)N[C@@H](CCC(=O)O)C(=O)O)C(=O)O)cn2)nn1)C[B-](F)(F)[18F] [^18F-HTK01130] ?
OUT: 4.44

IN: Which Biodistribution Tumor reading was recorded for the molecule O=C(O)CC[C@H](NC(=O)N[C@@H](CCCCNC(=O)[C@H](Cc1ccc2ccccc2c1)NC(=O)[C@H]1CC[C@H](CNC(=O)Cn2cc(C[n+]3ccc([B-](F)(F)[18F])cc3)nn2)CC1)C(=O)O)C(=O)O [^18F-PSMA-617-PyrBF3] ?
OUT: 23.1

IN: Which Biodistribution Tumor reading was recorded for the molecule C[N+](C)(Cc1ccc(C(=O)NCCCC[C@H](NC(=O)N[C@@H](CCC(=O)O)C(=O)O)C(=O)O)cc1)C[B-](F)(F)[18F] [F-18 HTK-01069] ?
OUT: 6.04

----------
# System: PSMA-expressing LNCAP cancer xenografts
# assay method text: Biodistribution and tumor-to-background contrast ratios of 18F-labeled tracers
# Assay type: in vivo, mouse (NODSCID 1L2RγKO male mice)
# test conditions: 1 h
Assign Tumor:Blood contrast ratio to each entry below.
Please state the value as a number alone, without comment.

IN: Which Tumor:Blood contrast ratio reading was recorded for the compound C[N+](C)(Cc1cn(Cc2ccc(C(=O)NCCCC[C@H](NC(=O)N[C@@H](CCC(=O)O)C(=O)O)C(=O)O)cc2)nn1)C[B-](F)(F)[18F] [F-18 HTK-01070] ?
OUT: 16.0

IN: Which Tumor:Blood contrast ratio reading was recorded for the compound C[N+](C)(Cc1cn(Cc2ccc(C(=O)NCCCC[C@H](NC(=O)N[C@@H](CCC(=O)O)C(=O)O)C(=O)O)cn2)nn1)C[B-](F)(F)[18F] [^18F-HTK01130] ?
OUT: 7.60

IN: Which Tumor:Blood contrast ratio reading was recorded for the compound O=C(O)CC[C@H](NC(=O)N[C@@H](CCCCNC(=O)[C@H](Cc1ccc2ccccc2c1)NC(=O)[C@H]1CC[C@H](CNC(=O)Cn2cc(C[n+]3ccc([B-](F)(F)[18F])cc3)nn2)CC1)C(=O)O)C(=O)O [^18F-PSMA-617-PyrBF3] ?
OUT: 35.4

IN: Which Tumor:Blood contrast ratio reading was recorded for the compound C[N+](C)(Cc1cn(CC(=O)NCCOCCOCCC(=O)N[C@@H](Cc2ccc3ccccc3c2)C(=O)NCCCC[C@H](NC(=O)N[C@@H](CCC(=O)O)C(=O)O)C(=O)O)nn1)C[B-](F)(F)[18F] [^18F-HTK01146] ?
OUT: 54.6

----------
# System: PSMA-expressing LNCAP cancer xenografts
# assay method text: Biodistribution and tumor-to-background contrast ratios of 18F-labeled tracers
# Format: in vivo, mouse (NODSCID 1L2RγKO male mice)
# test conditions: 1 h
readout label: Biodistribution Liver
Answer format reminder: number followed by unit.

IN: Please tell me: Biodistribution Liver of C[N+](C)(Cc1ccc(C(=O)NCCCC[C@H](NC(=O)N[C@@H](CCC(=O)O)C(=O)O)C(=O)O)cc1)C[B-](F)(F)[18F] , system PSMA-expressing LNCAP cancer xenografts?
OUT: 2.90 ± 0.56 % ID/g

IN: Please tell me: Biodistribution Liver of O=C(O)CC[C@H](NC(=O)N[C@@H](CCCCNC(=O)[C@H](Cc1ccc2ccccc2c1)NC(=O)[C@H]1CC[C@H](CNC(=O)Cn2cc(C[n+]3ccc([B-](F)(F)[18F])cc3)nn2)CC1)C(=O)O)C(=O)O [^18F-PSMA-617-PyrBF3] , system PSMA-expressing LNCAP cancer xenografts?
OUT: 1.10 ± 0.28 % ID/g

IN: Please tell me: Biodistribution Liver of C[N+](C)(Cc1cn(CC(=O)NCCOCCOCCC(=O)N[C@@H](Cc2ccc3ccccc3c2)C(=O)NCCCC[C@H](NC(=O)N[C@@H](CCC(=O)O)C(=O)O)C(=O)O)nn1)C[B-](F)(F)[18F] [^18F-HTK01146] , system PSMA-expressing LNCAP cancer xenografts?
OUT: 0.83 ± 0.34 % ID/g

----------
# Tested on: PSMA-expressing LNCAP cancer xenografts
# assay method text: Biodistribution and tumor-to-background contrast ratios of 18F-labeled tracers
# Assay type: in vivo, mouse (NODSCID 1L2RγKO male mice)
# test conditions: 1 h
Assign Biodistribution Pancreas to each entry below.
Answer format: numeric, % ID/g implied, no suffix.

IN: Which Biodistribution Pancreas reading was recorded for the compound C[N+](C)(Cc1cn(Cc2ccc(C(=O)NCCCC[C@H](NC(=O)N[C@@H](CCC(=O)O)C(=O)O)C(=O)O)cc2)nn1)C[B-](F)(F)[18F] [F-18 HTK-01070] ?
OUT: 0.33

IN: Which Biodistribution Pancreas reading was recorded for the compound C[N+](C)(Cc1cn(CC(=O)NCCOCCOCCC(=O)N[C@@H](Cc2ccc3ccccc3c2)C(=O)NCCCC[C@H](NC(=O)N[C@@H](CCC(=O)O)C(=O)O)C(=O)O)nn1)C[B-](F)(F)[18F] [^18F-HTK01146] ?
OUT: 0.13

IN: Which Biodistribution Pancreas reading was recorded for the compound O=C(O)CC[C@H](NC(=O)N[C@@H](CCCCNC(=O)c1ccc(Cn2cc(C[n+]3ccc([B-](F)(F)[18F])cc3)nn2)nc1)C(=O)O)C(=O)O [^18F-PSMA PyrBF3] ?
OUT: 0.68

IN: Which Biodistribution Pancreas reading was recorded for the compound C[N+](C)(Cc1cn(CC(=O)NC[C@H]2CC[C@H](C(=O)N[C@@H](Cc3ccc4ccccc4c3)C(=O)NCCCC[C@H](NC(=O)N[C@@H](CCC(=O)O)C(=O)O)C(=O)O)CC2)nn1)C[B-](F)(F)[18F] [^18F-HTK01157] ?
OUT: 0.30

IN: Which Biodistribution Pancreas reading was recorded for the compound C[N+](C)(Cc1ccc(C(=O)NCCCC[C@H](NC(=O)N[C@@H](CCC(=O)O)C(=O)O)C(=O)O)cc1)C[B-](F)(F)[18F] [F-18 HTK-01069] ?
OUT: 0.55

IN: Which Biodistribution Pancreas reading was recorded for the compound C[N+](C)(Cc1cn(Cc2ccc(C(=O)NCCCC[C@H](NC(=O)N[C@@H](CCC(=O)O)C(=O)O)C(=O)O)cn2)nn1)C[B-](F)(F)[18F] [^18F-HTK01130] ?
OUT: 0.31

IN: Which Biodistribution Pancreas reading was recorded for the compound O=C(O)CC[C@H](NC(=O)N[C@@H](CCCCNC(=O)[C@H](Cc1ccc2ccccc2c1)NC(=O)[C@H]1CC[C@H](CNC(=O)Cn2cc(C[n+]3ccc([B-](F)(F)[18F])cc3)nn2)CC1)C(=O)O)C(=O)O [^18F-PSMA-617-PyrBF3] ?
OUT: 0.26
